Target: muscarinic M1 receptors (Rattus norvegicus)
Construct: The cortex of rat brains obtained from male Sprague-Dawley rats; from tissue; host or cells: rat brain cortex homogenate (male Sprague-Dawley)
Sequence (P08482 whole entry): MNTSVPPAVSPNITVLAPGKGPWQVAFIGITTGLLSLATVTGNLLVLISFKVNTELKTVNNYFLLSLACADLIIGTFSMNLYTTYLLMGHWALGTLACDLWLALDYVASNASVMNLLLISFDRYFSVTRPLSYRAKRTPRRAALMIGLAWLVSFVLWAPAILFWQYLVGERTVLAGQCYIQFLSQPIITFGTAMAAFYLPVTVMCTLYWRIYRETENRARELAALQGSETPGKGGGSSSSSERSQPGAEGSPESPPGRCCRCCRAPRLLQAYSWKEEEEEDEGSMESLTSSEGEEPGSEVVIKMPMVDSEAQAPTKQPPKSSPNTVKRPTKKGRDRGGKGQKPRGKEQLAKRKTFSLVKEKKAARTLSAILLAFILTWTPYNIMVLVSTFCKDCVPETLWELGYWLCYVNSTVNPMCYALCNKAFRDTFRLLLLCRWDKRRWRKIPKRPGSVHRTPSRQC
Experiment: Tritiated pirenzepine ([^3 H]PZ) binding inhibition, rat brain cortex (M1 binding)
Details: [^3 H]PZ 0.5 nM, read-out: M1 Binding % Inhib. of [^3 H] Pz @ 10 μM
Below, each of the compounds is paired with its reported inhibition at 10 µM value.
Numbers only; they are read as %.

{"MOL": "CCN(CC)CCCNc1nnc(COC)c2c1cc1ccccn12", "inhibition at 10 µM / %": 98.4}
{"MOL": "CCN(CC)CCCNCc1nnc(NCCCN(CC)CC)c2cc3ccccn3c12", "inhibition at 10 µM / %": 99.3}
{"MOL": "CCN(CC)CCCNc1nnc(C)c2c1cc1n2CCCC1", "inhibition at 10 µM / %": 98}

Would you kindly look at the next entry?
What measured inhibition at 10 µM goes with `c1ccc(COCc2nnc(NCCCCN3CCOCC3)c3cc4n(c23)CCCC4)cc1` ?
100
